Target: S. aureus DNA gyrase (Staphylococcus aureus, UniProt P20831)
Construct: purchased Inspiralis (Norwich, UK)
Test: Gel-based S. aureus Gyrase Supercoiling assay (Inspiralis)
Type: biochemical
Details: read-out: S. aureus gyrase supercoiling IC50 Assay 1; gel-based assay, assay 1
Sequence (P20831 whole entry): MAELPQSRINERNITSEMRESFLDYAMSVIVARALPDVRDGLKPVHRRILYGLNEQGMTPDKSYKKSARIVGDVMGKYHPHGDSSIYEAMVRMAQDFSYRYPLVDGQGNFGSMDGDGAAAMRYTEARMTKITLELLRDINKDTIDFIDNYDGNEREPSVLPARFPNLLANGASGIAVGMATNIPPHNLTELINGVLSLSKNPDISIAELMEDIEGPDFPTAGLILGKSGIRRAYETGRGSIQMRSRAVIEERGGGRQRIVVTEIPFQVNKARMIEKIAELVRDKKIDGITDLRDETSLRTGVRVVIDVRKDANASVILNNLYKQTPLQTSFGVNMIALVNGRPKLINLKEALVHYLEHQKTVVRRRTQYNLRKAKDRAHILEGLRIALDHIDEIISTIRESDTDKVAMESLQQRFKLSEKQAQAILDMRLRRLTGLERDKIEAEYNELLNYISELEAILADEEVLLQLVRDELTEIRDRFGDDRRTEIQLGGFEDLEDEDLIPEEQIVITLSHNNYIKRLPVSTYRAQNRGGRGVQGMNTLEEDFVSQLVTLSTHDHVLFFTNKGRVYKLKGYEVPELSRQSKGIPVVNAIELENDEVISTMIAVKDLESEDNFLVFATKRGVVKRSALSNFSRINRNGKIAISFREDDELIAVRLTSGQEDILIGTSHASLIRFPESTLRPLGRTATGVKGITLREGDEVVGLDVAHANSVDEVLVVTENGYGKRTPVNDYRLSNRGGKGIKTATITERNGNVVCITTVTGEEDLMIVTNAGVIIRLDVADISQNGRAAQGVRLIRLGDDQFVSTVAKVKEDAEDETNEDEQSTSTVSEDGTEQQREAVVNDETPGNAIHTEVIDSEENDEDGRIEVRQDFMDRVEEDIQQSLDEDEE
Sequence (P0A0K8 whole entry, further chain): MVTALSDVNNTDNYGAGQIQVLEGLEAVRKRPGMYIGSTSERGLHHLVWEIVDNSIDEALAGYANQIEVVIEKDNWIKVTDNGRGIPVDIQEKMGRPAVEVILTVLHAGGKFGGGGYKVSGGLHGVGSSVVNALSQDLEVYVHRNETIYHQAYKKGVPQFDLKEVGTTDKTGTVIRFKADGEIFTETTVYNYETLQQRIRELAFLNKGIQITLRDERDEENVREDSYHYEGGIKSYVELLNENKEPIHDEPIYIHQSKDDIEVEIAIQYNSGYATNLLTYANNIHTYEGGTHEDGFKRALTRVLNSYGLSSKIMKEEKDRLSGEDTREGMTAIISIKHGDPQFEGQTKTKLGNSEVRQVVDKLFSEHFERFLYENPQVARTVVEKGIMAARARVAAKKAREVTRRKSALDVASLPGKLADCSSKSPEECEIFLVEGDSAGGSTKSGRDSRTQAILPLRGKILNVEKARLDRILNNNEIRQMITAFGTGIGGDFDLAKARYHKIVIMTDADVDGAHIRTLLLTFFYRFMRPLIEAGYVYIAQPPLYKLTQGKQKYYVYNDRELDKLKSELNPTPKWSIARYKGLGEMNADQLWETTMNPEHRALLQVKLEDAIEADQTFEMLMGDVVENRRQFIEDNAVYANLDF
PROPERTY LABEL: IC50 (nM)
The answer is to be given in nM; state only the numeric part.

Request: Name the recorded IC50 of the molecule listed here: COc1ccc2nccc(CCN3CCC(NCc4ccc(I)cc4)CC3)c2n1 [Compound 6]
Result: 13

----------
Target: S. aureus DNA gyrase (Staphylococcus aureus, UniProt P20831)
Construct: purchased Inspiralis (Norwich, UK)
Experiment: Gyrase Supercoiling High Throughput Plate Assay (fluorescence), S. aureus
Assay type: biochemical
Conditions: fluorescence-based high throughput plate assay
Sequence (P20831 whole entry): as the sequence (P20831 whole entry) above
Sequence (P0A0K8 whole entry partner): as the sequence (P0A0K8 whole entry, further chain) above
Measured pIC50 values are reported for all entries that follow.
For clarity, pIC50 is expressed as the negative log10 of concentration in mol/L.

Answered examples (2):
INSERT INTO results (molecule, tested_system, recorded_number) VALUES
  ('COc1ccc2nccc(CCN3CCC(NCc4ccc(N(C)C)cc4)CC3)c2n1 [Compound 9]', 'S. aureus DNA gyrase (Staphylococcus aureus, UniProt P20831)', 7.17),
  ('COc1ccc2nccc(CCN3CCC(NCc4ccc(F)cc4)CC3)c2n1 [Compound 3]', 'S. aureus DNA gyrase (Staphylococcus aureus, UniProt P20831)', 6.26);

Request: Name the recorded pIC50 of the molecule listed here: COc1ccc2nccc(CCN3CCC(NCc4ccccc4)CC3)c2n1 [Compound 2]
Result: 5.99

----------
Tested on: HUVEC
Experiment: Metabolic activity assessment (CellTiter 96 Aqueous One), HUVEC
Assay type: cell-based
Conditions: Homo sapiens, 72 h treatment, mean ± SD
PROPERTY LABEL: IC50 (µM)
The answer is to be given in µM; state only the numeric part.

INSERT INTO results (mol_smiles, property_label, recorded_number) VALUES
  ('COc1ccc2nccc(CCN3CCC(NCc4ccc(I)cc4)CC3)c2n1', 'IC50', 19),
  ('COc1ccc2nccc(CCN3CCC(NCc4ccc(N(C)C)cc4)CC3)c2n1', 'IC50', 23.9),
  ('COc1ccc2nccc(CCN3CCC(NCc4ccc(Cl)cc4)CC3)c2n1', 'IC50', 27);

Request: Name the recorded IC50 of the compound listed here: COc1ccc2nccc(CCN3CCC(NCc4ccc(Br)cc4)CC3)c2n1
Result: 25.4

Request: Name the recorded IC50 of the compound listed here: COc1ccc2nccc(CCN3CCC(NCc4ccccc4)CC3)c2n1
Result: 54.1

----------
Target: hERG potassium channel (Homo sapiens)
Construct: purchased Invitrogen (kit); assay run at TCG Lifesciences Pvt; Ltd. India
Assay: FP-based hERG binding assay (Invitrogen kit)
// assign rule met if IC50 falls strictly below 600 nM, else rule not met (ties count as rule not met)

INSERT INTO results (mol_smiles, answer_label) VALUES
  ('COc1ccc2nccc(CCN3CCC(NCc4ccc(N(C)C)cc4)CC3)c2n1', 'rule not met'),
  ('COc1ccc2nccc(CCN3CCC(NCc4ccc(C(N)=O)cc4)CC3)c2n1', 'rule not met'),
  ('COc1ccc2nccc(CCN3CCC(NCc4ccccc4)CC3)c2n1', 'rule not met'),
  ('COc1ccc2nccc(CCN3CCC(NCc4ccc(Br)cc4)CC3)c2n1', 'rule met');

API: the following record is the query input.
Request: Identify whether the compound COc1ccc2nccc(CCN3CCC(NCc4ccc(Cl)cc4)CC3)c2n1 records IC50 below 600 nM.
Result: rule met

----------
Biological target: S. aureus DNA gyrase (Staphylococcus aureus, UniProt P20831)
Construct: purchased Inspiralis (Norwich, UK)
Assay: Gel-based S. aureus Gyrase Supercoiling assay (Inspiralis)
Assay type: biochemical
Conditions: S. aureus gyrase supercoiling IC50 Assay 1, gel-based assay, assay 1
PROPERTY LABEL: IC50 (nM)
The answer is to be given in nM; state only the numeric part.

Request: Quote IC50 with test system S. aureus DNA gyrase (Staphylococcus aureus, UniProt P20831) for COc1ccc2nccc(CCN3CCC(NCc4ccc(Br)cc4)CC3)c2n1
Result: 7

----------
Biological target: S. aureus DNA gyrase (Staphylococcus aureus, UniProt P20831)
Construct: purchased Inspiralis (Norwich, UK)
Experiment: Gel-based S. aureus Gyrase Supercoiling assay (Inspiralis)
Type: biochemical
Conditions: S. aureus inhibition (DNA supercoiling IC50), as quoted in point-by-point response
PROPERTY LABEL: IC50
Record the result as number plus unit.

Request: Name the recorded IC50 of the compound listed here: COc1ccc2nccc(CCN3CCC(NCc4ccc(Br)cc4)CC3)c2n1 [Compound 5]
Result: 7 nM

----------
Biological target: S. aureus DNA gyrase (Staphylococcus aureus)
Construct: purchased Inspiralis (Norwich, UK)
Test: Gel-based S. aureus Gyrase Supercoiling assay (Inspiralis)
Assay type: biochemical
Conditions: S. aureus gyrase supercoiling IC50 Average, gel-based assay, average of assay 1 and 2
PROPERTY LABEL: IC50 (nM)
The answer is to be given in nM; state only the numeric part.

Request: Quote IC50 with test system S. aureus DNA gyrase (Staphylococcus aureus) for COc1ccc2nccc(CCN3CCC(NCc4ccc(Br)cc4)CC3)c2n1
Result: 7

----------
Molecular target: hERG potassium channel (Homo sapiens, UniProt Q12809)
Construct: purchased Invitrogen (kit); assay run at TCG Lifesciences Pvt; Ltd. India
Sequence (Q12809 whole entry): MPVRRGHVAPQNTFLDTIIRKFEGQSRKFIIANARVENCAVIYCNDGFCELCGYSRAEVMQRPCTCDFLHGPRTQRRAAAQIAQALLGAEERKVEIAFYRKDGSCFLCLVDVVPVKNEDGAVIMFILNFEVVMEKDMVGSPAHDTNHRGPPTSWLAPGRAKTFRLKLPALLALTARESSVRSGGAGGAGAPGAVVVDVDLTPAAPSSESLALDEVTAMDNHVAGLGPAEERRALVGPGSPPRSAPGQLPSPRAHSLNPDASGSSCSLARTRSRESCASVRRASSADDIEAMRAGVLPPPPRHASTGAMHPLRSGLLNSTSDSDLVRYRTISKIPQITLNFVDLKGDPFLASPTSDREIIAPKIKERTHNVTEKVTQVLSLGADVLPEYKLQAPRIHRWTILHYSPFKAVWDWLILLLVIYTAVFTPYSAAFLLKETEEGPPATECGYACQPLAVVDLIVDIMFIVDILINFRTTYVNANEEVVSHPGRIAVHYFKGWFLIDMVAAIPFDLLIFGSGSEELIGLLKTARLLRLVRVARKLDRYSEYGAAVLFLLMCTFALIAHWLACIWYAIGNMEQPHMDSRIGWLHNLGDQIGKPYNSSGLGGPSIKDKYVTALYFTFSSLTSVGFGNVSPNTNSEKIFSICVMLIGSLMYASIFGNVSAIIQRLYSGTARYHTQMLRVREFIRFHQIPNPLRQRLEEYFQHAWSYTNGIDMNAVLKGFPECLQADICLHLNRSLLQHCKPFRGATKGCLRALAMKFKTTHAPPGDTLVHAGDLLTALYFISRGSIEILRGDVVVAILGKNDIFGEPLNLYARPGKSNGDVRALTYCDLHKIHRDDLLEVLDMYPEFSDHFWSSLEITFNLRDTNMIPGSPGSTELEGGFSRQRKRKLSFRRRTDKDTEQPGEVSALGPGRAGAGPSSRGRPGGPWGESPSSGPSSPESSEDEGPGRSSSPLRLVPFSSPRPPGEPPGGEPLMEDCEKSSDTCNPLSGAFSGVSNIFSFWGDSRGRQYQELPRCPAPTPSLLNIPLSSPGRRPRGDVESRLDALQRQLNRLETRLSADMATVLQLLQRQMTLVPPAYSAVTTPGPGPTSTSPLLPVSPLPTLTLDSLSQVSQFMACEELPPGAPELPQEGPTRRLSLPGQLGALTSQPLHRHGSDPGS
Experiment: FP-based hERG binding assay (Invitrogen kit)
Details: human, FP-based hERG binding assay kit (Invitrogen)
PROPERTY LABEL: IC50 (µM)
The answer is to be given in µM; state only the numeric part.

Request: Name the recorded IC50 of the molecule listed here: COc1ccc2nccc(CCN3CCC(NCc4ccc(I)cc4)CC3)c2n1 [Compound 6]
Result: 0.18

----------
Molecular target: S. aureus DNA gyrase (Staphylococcus aureus, UniProt P20831)
Construct: purchased Inspiralis (Norwich, UK)
Test: Gel-based S. aureus Gyrase Supercoiling assay (Inspiralis)
Type: biochemical
Conditions: read-out: S. aureus gyrase supercoiling IC50 Assay 2; gel-based assay, assay 2
PROPERTY LABEL: IC50 (nM)
The answer is to be given in nM; state only the numeric part.

Request: Name the recorded IC50 of the molecule listed here: COc1ccc2nccc(CCN3CCC(NCc4ccc(I)cc4)CC3)c2n1 [Compound 6]
Result: 9

----------
Molecular target: S. aureus DNA gyrase (Staphylococcus aureus, UniProt P20831)
Construct: purchased Inspiralis (Norwich, UK)
Assay: Gel-based S. aureus Gyrase Supercoiling assay (Inspiralis)
Type: biochemical
Settings: IC50 S. aureus DNA gyrase supercoiling, gel-based assay
PROPERTY LABEL: pIC50
For clarity, pIC50 is expressed as the negative log10 of concentration in mol/L.

Request: Name the recorded pIC50 of the molecule listed here: COc1ccc2nccc(CCN3CCC(NCc4ccc(Br)cc4)CC3)c2n1 [Compound 5]
Result: 8.15
